- Tested on: biotinyl-Leu-oxazolone
- method description: self-aminoacylation, catalytic enhancement (BLO) (fold over background); higher = more active; k-Seq, kA / k0A0; sequences stand for … in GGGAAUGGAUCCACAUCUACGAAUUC…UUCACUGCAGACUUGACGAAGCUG
Fewer inactive variants are shown than the library holds.
Give fulfilled when the value for self-aminoacylation is at least 1. Give not fulfilled when it is less.

Does the reported self-aminoacylation for CUACUUCAAAAAAGCGGUCUG [Fam1A.1 aminoacylation ribozyme variant] fall at or above the 1 mark?
not fulfilled

Item CUAGUUCAAACAACCGGUCUG [Fam1A.1 aminoacylation ribozyme variant] with self-aminoacylation of 1 or above?
not fulfilled

API: above_or_equal(metric=self-aminoacylation, cutoff=1) for item AUUACCCUGGUUAUCGAGUGU [Fam2.1 aminoacylation ribozyme variant]
fulfilled

In plain terms: is recorded self-aminoacylation at least 1 for AAGUUUGCCAAUAUUCGCAAG [Fam3.1 aminoacylation ribozyme variant] ?
fulfilled

Is reported self-aminoacylation greater than or equal to 1 here: AAGAUUGCCAAUAGUCGCAAG [Fam3.1 aminoacylation ribozyme variant]
fulfilled

Would you say AUUACCCUGGUCCUCGAGUGU [Fam2.1 aminoacylation ribozyme variant] shows self-aminoacylation at minimum 1?
fulfilled

Could you please find out whether CUACUUCAUACAAUCGGUCCG [Fam1A.1 aminoacylation ribozyme variant] has self-aminoacylation that meets 1 or exceeds it?
not fulfilled

Is self-aminoacylation for CUACUUCAUACAAUGGGUCUG [Fam1A.1 aminoacylation ribozyme variant] at or above 1?
not fulfilled

All values here come from the supplement of paper PMC9233669.
